target: T1, human EGFRvIII-hFc protein (human, UniProt P00533 25-645); test: ELISA, coated EGFRvIII-hFc, antibody 1 nM
T1 construct: extracellular domain; made in HEK293 cells, purified on protein A; also called immunogen A; hFc-tagged EGFRvIII protein; not shown: human IgG Fc fragment (hFc) of the pCpC vector
test-readout: OD450 nm
// keep it numeric: no unit symbol after the value

These recorded examples may help you get a feel for the data.
{"binder": "Murine anti-59G3 (antibody, V domains shown, murine hybridoma antibody; also called 59G3F12) VH: DVQLQESGPGLVKPSQSLSLTCSVTGYSITSGYYWHWIRQFPENKLEWMGYISYDGSNIYNPSLKNRISITRDTSKNQFFLKLNSVTTEDTATYYCAINSDYALDYWGQGTSVTVSS VL: QIVLTQSPAIMSASPGEKVTMTCSASSSVSYMYWYQQKPGSSPRLLIYDTSNLASGVPVRFSGSGSGTSYSLTISRMEAEDAATYYCQQWSSYSLTFGAGTKLELK", "val": 2.68}
{"binder": "Murine anti-49G12 (antibody, V domains shown, murine hybridoma antibody; also called 49G12G5) VH: EVQLLQSGAELVKPGASVKLSCTASGFNIKDYYMHWVKQRTEQGLEWIGRIDPEDGETKYAPKFQGKATMTADTSSNTAYLQLSSLTSEDTAVYYCASSAYYGRNYWGQGTTLTVSS VL: QIVLTQSPAIMSASPGEKVTLTCSASSSLSSSYLYWYQQKPGSSPKLWIYSTSNLASGVPARFSGSGSGTSYSLTISSMEAEDAASYFCHQWSSYPYTFGGGTKLEIK", "val": 3.2}
{"binder": "Murine anti-64F1 (antibody, V domains shown, murine hybridoma antibody; also called 64F1F8) VH: QVQLQQSGAELARPGASVKMSCKASGYTFSSYTMHWAKQRPGQGLEWIGYINPSSGYTKYNQKFKDKATLTADKSSSTAYMQLSSLTSEDSIVYYCARGGGRGFAYWGQGTLVTVSA VL: QIVLTQSPAIMSASPGERVTMTCSASSSVSYMYWYQQKPGSSPRLLIYDTSNLASGVPVRFSGSGSGTSYSLTISRVEAEDAATYYCQQWSSYSLTFGAGTKLELK", "val": 3.51}

Problem: Tell me its OD450 nm given Murine anti-56F10 (antibody, V domains shown, murine hybridoma antibody; also called 56F10G2) VH: EVQLQQSGAELVKPGASVKLSCTASGFNIKDFYMHWVKQRTEQGLEWIGRIDPEDGETKYAPKFQGKATITADTSSNTAYLQLSSLTSEDTAVYYCGCRTGGFAYWGQGTLVTVSA VL: QIVLTQSPAIMSASPGEKVTMTCSASSSVSYLYWYQQKPGSSPSLLIYDTSNLASGVPVRFSGSGSGTSYSLTISRMEAEDAATYYCQQWSRNPWTFGGGTKLEIK as the entry.
Solution: 0.98

Values were extracted from patent US20210032351A1.
